# MEASUREMENT PROTOCOL: Cytotoxicity against Bax deficient human HCT116 cells assessed as reduction in cell viability after 24 hrs by MTT assay
# Format: functional, cell-based
# EXPERIMENTAL CONTEXT: HCT-116, 24 h
PARAMETER: pIC50
Bear in mind: pIC50 is minus log10 of a mol/L concentration; give just that figure.

Input: Field request: pIC50 | item: `CO[C@@H]1C(C=O)=CC[C@@H]2C3=C(C(C)C)CC[C@]3(C)CC[C@@]2(C)[C@H]1O`
Output: 4.62
